target_or_system: Estrogen receptor beta (Homo sapiens, UniProt Q92731)
Sequence (Q92731 whole entry): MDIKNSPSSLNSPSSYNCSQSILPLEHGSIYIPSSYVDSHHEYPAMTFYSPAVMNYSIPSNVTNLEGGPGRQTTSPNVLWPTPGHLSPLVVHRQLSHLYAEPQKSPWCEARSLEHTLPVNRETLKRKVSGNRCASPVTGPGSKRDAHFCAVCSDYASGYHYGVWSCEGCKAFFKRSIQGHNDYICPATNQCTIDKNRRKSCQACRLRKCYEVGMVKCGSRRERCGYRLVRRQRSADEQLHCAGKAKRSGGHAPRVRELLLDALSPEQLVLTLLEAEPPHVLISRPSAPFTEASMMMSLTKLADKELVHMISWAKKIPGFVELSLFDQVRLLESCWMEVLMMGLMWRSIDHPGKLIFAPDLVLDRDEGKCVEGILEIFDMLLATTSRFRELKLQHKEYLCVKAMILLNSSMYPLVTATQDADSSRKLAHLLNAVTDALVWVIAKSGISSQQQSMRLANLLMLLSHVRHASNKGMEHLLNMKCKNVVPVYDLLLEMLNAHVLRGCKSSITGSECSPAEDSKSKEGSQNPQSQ
assay_explanation: Activation of human ERbeta assessed as induction of transcriptional activation incubated for 24 hrs by luciferase reporter gene assay
measure_name: EC50 (nM)
Express it in nM; write the number only.

Consider the molecule CC1(C)OB(c2ccc(CC(C#N)c3ccc(B4OC(C)(C)C(C)(C)O4)cc3)cc2)OC1(C)C (stereo unspecified) . State its measured EC50. 470

====

target_or_system: Estrogen receptor beta (Homo sapiens, UniProt Q92731)
assay_explanation: Activation of human ERbeta assessed as induction of transcriptional activation incubated for 24 hrs in presence of 50 uM H2O2 by luciferase reporter gene assay
measure_name: EC50 (nM)
Field: numeric (nM). Do not append units.

Report measured EC50 on Estrogen receptor beta (Homo sapiens, UniProt Q92731); entry: CC1(C)OB(c2ccc(CC(C#N)c3ccc(B4OC(C)(C)C(C)(C)O4)cc3)cc2)OC1(C)C (stereo unspecified) 6.1

====

Exercise: for every item that follows, state its recorded Retention_time.
assay_explanation: Retention time of the compound at 150 uM by HPLC analysis
Format: physicochemical
Lab book: enter the figure in min, no units written.

Give the measured Retention_time for CC1(C)OB(c2ccc(C(C#N)Cc3ccc(O)cc3)cc2)OC1(C)C (centres undefined) 23

Give Retention_time for the following compound: N#CC(Cc1ccc(O)cc1)c1ccc(O)cc1 (centres undefined) 19

Report Retention_time for CC1(C)OB(c2ccc(CC(C#N)c3ccc(B4OC(C)(C)C(C)(C)O4)cc3)cc2)OC1(C)C (centres undefined) 28

Please give the documented Retention_time of CC1(C)OB(c2ccc(CC(C#N)c3ccc(O)cc3)cc2)OC1(C)C (centres undefined) 22
